protocol: Tissue analysis: recovery of TPP from serum and tissues after injection
Format: in vivo, mice
assayConditions: mouse, skin, iv, 2 mg/kg; 3 hours after injection; average of 6 mice, maximum deviation ±20%; read-out: Recovery, skin
endpoint: concentration at 3 h (ng/g)

[[record]]
smilesnotation = "CCCC1=Cc2nc1ccc1[nH]c(cc1CCC)c1nc(ccc3[nH]c2cc3CCC)C(CCC)=C1"
resultunits = "ng/g"
resultnumber = 290


###

protocol: Tissue analysis: recovery of TPP from serum and tissues after injection
Type: in vivo, mice
assayConditions: mouse, brain, iv, 2 mg/kg; 3 hours after injection; average of 6 mice, maximum deviation ±20%; read-out: Recovery, brain
endpoint: concentration at 3 h

[[record]]
smilesnotation = "CCCC1=Cc2nc1ccc1[nH]c(cc1CCC)c1nc(ccc3[nH]c2cc3CCC)C(CCC)=C1"
result = "< 10 ng/g"


###

protocol: Tissue analysis: recovery of TPP from serum and tissues after injection
Format: in vivo, mice
assayConditions: mouse, muscle, iv, 2 mg/kg; 3 hours after injection; average of 6 mice, maximum deviation ±20%; read-out: Recovery, muscle
endpoint: concentration at 3 h (ng/g)

[[record]]
compound = "CCCC1=Cc2nc1ccc1[nH]c(cc1CCC)c1nc(ccc3[nH]c2cc3CCC)C(CCC)=C1 [TPP, 2,7,12,17-tetra-n-propylporphycene]"
resultnumber = 140


###

protocol: Tissue analysis: recovery of TPP from serum and tissues after injection
Assay type: in vivo, mice
assayConditions: mouse, skin, iv, 2 mg/kg; 24 hours after injection; average of 6 mice, maximum deviation ±20%; read-out: Recovery, skin
endpoint: concentration at 24 h

[[record]]
smilesnotation = "CCCC1=Cc2nc1ccc1[nH]c(cc1CCC)c1nc(ccc3[nH]c2cc3CCC)C(CCC)=C1"
endpoint = "concentration at 24 h"
result = "440 ng/g"


###

protocol: Tissue analysis: recovery of TPP from serum and tissues after injection
Format: in vivo, mice
assayConditions: mouse, liver, iv, 2 mg/kg; 3 hours after injection; average of 6 mice, maximum deviation ±20%; read-out: Recovery, liver
Experimental: At each of 3 hours and 24 hours after injection, six mice were sacrificed by exposure to ether vapor, and the serum or specific tissue were removed. About 2 mL of blood was taken intracardially and centrifuged for 15 minutes at 3,000 rpm to remove the erythrocytes. […] The fluorescence emitted in the 580-740 nm interval was converted into TPP concentration by interpolation with a calibration plot. […]
endpoint: concentration at 3 h (ng/g)

[[record]]
smilesnotation = "CCCC1=Cc2nc1ccc1[nH]c(cc1CCC)c1nc(ccc3[nH]c2cc3CCC)C(CCC)=C1"
endpoint = "concentration at 3 h"
resultunits = "ng/g"
resultnumber = 13000


###

protocol: Tissue analysis: recovery of TPP from serum and tissues after injection
Format: in vivo, mice
assayConditions: mouse, brain, iv, 2 mg/kg; 24 hours after injection; average of 6 mice, maximum deviation ±20%; read-out: Recovery, brain
endpoint: concentration at 24 h

[[record]]
smilesnotation = "CCCC1=Cc2nc1ccc1[nH]c(cc1CCC)c1nc(ccc3[nH]c2cc3CCC)C(CCC)=C1"
endpoint = "concentration at 24 h"
result = "< 10 ng/g"


###

protocol: Tissue analysis: recovery of TPP from serum and tissues after injection
Assay type: in vivo, mice
assayConditions: mouse, tumor, iv, 2 mg/kg; 24 hours after injection; average of 6 mice, maximum deviation ±20%; read-out: Recovery, tumor
endpoint: concentration at 24 h (ng/g)

[[record]]
smilesnotation = "CCCC1=Cc2nc1ccc1[nH]c(cc1CCC)c1nc(ccc3[nH]c2cc3CCC)C(CCC)=C1"
resultnumber = 1500

